# STUDY TARGET: wild-type human cardiac sodium channel, hNav1.5 (Homo sapiens)
# Sequence (Q14524 whole entry): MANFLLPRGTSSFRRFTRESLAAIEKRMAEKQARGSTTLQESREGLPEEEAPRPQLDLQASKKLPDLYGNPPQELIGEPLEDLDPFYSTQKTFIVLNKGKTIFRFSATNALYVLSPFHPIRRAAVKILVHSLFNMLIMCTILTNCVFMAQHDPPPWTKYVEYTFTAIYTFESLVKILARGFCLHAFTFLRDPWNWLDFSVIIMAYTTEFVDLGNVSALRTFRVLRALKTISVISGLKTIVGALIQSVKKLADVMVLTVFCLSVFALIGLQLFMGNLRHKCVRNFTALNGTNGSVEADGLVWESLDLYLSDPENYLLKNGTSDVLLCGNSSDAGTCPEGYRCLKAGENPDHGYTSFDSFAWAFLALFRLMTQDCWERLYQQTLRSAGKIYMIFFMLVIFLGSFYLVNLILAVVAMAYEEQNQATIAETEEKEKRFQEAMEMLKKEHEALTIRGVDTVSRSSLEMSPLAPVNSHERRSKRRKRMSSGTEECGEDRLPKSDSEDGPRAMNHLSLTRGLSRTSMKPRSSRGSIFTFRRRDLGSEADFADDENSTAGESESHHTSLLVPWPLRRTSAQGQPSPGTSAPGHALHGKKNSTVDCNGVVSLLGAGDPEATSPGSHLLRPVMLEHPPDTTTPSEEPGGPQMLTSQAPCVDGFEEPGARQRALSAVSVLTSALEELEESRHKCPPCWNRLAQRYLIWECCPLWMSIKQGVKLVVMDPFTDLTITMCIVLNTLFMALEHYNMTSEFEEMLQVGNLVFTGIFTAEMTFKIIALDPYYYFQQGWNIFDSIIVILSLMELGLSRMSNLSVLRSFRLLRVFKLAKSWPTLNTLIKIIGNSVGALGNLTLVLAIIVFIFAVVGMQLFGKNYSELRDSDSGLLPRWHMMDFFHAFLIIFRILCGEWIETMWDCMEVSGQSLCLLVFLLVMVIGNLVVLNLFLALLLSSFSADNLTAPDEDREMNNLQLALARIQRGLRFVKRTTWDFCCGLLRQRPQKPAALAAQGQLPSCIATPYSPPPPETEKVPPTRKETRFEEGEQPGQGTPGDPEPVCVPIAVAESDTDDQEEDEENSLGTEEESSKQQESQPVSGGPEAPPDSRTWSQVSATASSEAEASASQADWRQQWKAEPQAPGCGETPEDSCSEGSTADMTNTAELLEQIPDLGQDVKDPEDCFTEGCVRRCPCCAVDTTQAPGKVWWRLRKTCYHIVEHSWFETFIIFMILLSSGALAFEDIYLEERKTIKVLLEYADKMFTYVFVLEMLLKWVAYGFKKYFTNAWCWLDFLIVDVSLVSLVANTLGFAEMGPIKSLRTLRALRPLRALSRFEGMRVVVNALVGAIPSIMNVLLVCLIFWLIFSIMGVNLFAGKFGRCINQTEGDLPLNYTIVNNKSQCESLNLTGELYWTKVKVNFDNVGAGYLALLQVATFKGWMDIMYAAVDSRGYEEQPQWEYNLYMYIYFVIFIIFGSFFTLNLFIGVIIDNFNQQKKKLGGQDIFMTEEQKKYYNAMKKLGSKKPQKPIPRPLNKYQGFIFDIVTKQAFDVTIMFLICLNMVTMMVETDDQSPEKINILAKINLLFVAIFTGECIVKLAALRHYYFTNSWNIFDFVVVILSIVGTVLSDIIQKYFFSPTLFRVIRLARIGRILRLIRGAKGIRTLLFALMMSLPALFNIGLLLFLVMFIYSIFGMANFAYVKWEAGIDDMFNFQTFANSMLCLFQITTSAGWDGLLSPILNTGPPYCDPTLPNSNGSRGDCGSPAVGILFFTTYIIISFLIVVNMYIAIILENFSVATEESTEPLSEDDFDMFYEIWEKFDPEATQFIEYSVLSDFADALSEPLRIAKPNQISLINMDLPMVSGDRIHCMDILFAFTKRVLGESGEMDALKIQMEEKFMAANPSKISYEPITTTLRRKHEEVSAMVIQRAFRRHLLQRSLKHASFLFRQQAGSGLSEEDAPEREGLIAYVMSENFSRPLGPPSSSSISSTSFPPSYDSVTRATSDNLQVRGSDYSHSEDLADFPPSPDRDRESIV
# MEASUREMENT NOTES: Late INa screening assay (automated whole cell patch clamp, PatchXpress)
# Assay type: cell-based
# RUN CONDITIONS: compound at 10 μM; HEK293 cells expressing hNav1.5; late INa generated with 10 μM Tefluthrin (or 50 nM ATX II); read-out: LateINa_10 uM (percent block of late INa)
Classification field. Basis: inhibition at 10 µM. Definitions: bin 1 = under 30%, bin 2 = from 30% up to 60%, bin 3 = 60% and over

STRUCTURE STRING: FC(F)(F)Oc1ccc(-c2ccc3nncn3n2)cc1
CATEGORY: bin 2

STRUCTURE STRING: CCNc1nnc2ccc(-c3ccc(Oc4ccccc4)cc3)cn12
CATEGORY: bin 2

STRUCTURE STRING: CC(C)(C#N)c1ccc(-c2ccc3nnc(C(F)(F)F)n3c2)cc1
CATEGORY: bin 3

STRUCTURE STRING: FC(F)(F)c1nnc2ccc(-c3ccc(Oc4cnccn4)cc3)cn12
CATEGORY: bin 1

STRUCTURE STRING: CCOC(=O)c1cccc(-c2nnc3ccc(-c4ccc(OC(F)(F)F)cc4)cn23)c1
CATEGORY: bin 3

STRUCTURE STRING: COc1ccc(-c2ccc3nnc(-c4ccc(C#N)cc4)n3n2)cc1
CATEGORY: bin 1

STRUCTURE STRING: FC(F)(F)Oc1ccc(-c2ccc3nnc(-c4ccccc4)n3c2)cc1
CATEGORY: bin 3

STRUCTURE STRING: Cc1cc(OC(F)(F)F)ccc1-c1ccc2nnc(C(F)(F)F)n2n1
CATEGORY: bin 3

STRUCTURE STRING: FC(F)(F)c1nnc2ccc(-c3ccc(C4CC4)nc3)cn12
CATEGORY: bin 2

STRUCTURE STRING: Cn1cc(-c2nnc3ccc(-c4ccc(OC(F)(F)F)cc4)cn23)cn1
CATEGORY: bin 2

STRUCTURE STRING: O=C(O)Cc1nnc2ccc(-c3ccc(OC(F)(F)F)cc3)cn12
CATEGORY: bin 2

STRUCTURE STRING: Cc1c(-c2ccc(C(F)(F)F)cc2)ccc2ncnn12
CATEGORY: bin 2

STRUCTURE STRING: Cc1nnc2c(N)cc(-c3ccc(OC(F)(F)F)cc3)cn12
CATEGORY: bin 2

STRUCTURE STRING: FC(F)(F)c1nnc2ccc(-c3ccc(-n4cncn4)cc3)cn12
CATEGORY: bin 1

STRUCTURE STRING: FC(F)(F)c1nnc2ccc(-c3ccc(Oc4ccccc4)cc3)cn12
CATEGORY: bin 3

STRUCTURE STRING: CS(=O)(=O)Nc1ccccc1-c1nnc2ccc(-c3ccc(OC(F)(F)F)cc3)cn12
CATEGORY: bin 1
